System: L1210
method_description: Cytotoxicity against […] mouse L1210 cells
Format: cell-based
Recorded IC50 determines the group label, using low band (below 7 µM), middle band (7 µM to below 60 µM), high band (60 µM or more)

Here's what some known entries look like.
CC[N+](C)(CC)CCOc1ccc(C(=O)N2C/C(=C\c3ccccc3)C(=O)/C(=C/c3ccccc3)C2)cc1 | high band
O=C1/C(=C/c2ccc([N+](=O)[O-])cc2)CN(C(=O)c2ccc(OCCN3CCOCC3)cc2)C/C1=C\c1ccc([N+](=O)[O-])cc1 | low band
O=C1/C(=C/c2ccc(Cl)cc2)CN(C(=O)c2ccc(OCCN3CCCCC3)cc2)C/C1=C\c1ccc(Cl)cc1 | high band

Which category fits this record: CCN(CC)CCOc1ccc(C(=O)O)cc1
high band

Which category fits this record: Cl.O=C1/C(=C/c2ccc(Cl)cc2)CN(C(=O)c2ccc(OCCN3CCOCC3)cc2)C/C1=C\c1ccc(Cl)cc1
high band

Which category fits this record: Cc1ccc(/C=C2\CN(C(=O)c3ccc(OCCN4CCCCC4)cc3)C/C(=C\c3ccc(C)cc3)C2=O)cc1
low band

Which category fits this record: O=C1/C(=C/c2ccccc2)CN(C(=O)c2ccccc2)C/C1=C\c1ccccc1
middle band
